The reported numbers originate from PubChem BioAssay.

- Measurement notes: inhibitors of E-selectin induction by TNFa, primary screen, imaging, HUVEC, immunofluorescence, MLSMR starter and 10KST1 sets (AID 487);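 further: 100% = median nuclei count of all wells on the same plate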
- Measurement context: HUVEC TNFalpha-induced E-selectin immunofluorescence imaging, at 2 µM; measured here: cell number, toxicity
The molecules listed here are annotated with their nuclei count.
Quantity name: nuclei count (%)

Molecule	Quantity name	Reading unit	Measured number
COc1ccc2[nH]c(C)c(C(=O)CN3CCOCC3)c2c1	nuclei count	%	184
COC(=O)c1cc(-c2ccccc2)sc1NC(=O)c1cc(C)on1	nuclei count	%	111
Cn1c(C(=O)N2CCCC(C(=O)NCCCc3ccccc3)C2)cc2sccc21 (stereo not drawn)	nuclei count	%	103
Cn1c(-c2ccccc2)cc(=O)c2ccccc21	nuclei count	%	118
Cc1ccc(CSC2=NCCN2C(=O)c2ccco2)cc1	nuclei count	%	115
CCN(CC)C(=O)CSc1nnc(-c2cc(OC)cc(OC)c2)o1	nuclei count	%	109
COc1ccc(CNc2nc(NCc3ccc(OC)cc3)n(S(C)(=O)=O)n2)cc1	nuclei count	%	95.3
COC(=O)C(NC(C)=O)(Nc1ccc(Br)cn1)C(F)(F)F (stereo not drawn)	nuclei count	%	88.1
CCn1c(SCC(=O)Nc2ccccc2C(=O)OC)nnc1-c1ccc(N)cc1	nuclei count	%	176
CC(C)(C)SCCNC(=O)CN1C(=O)c2ccccc2S1(=O)=O	nuclei count	%	106
COCCn1c(C)cc(C(=O)COC(=O)CCN2C(=O)c3ccccc3C2=O)c1C	nuclei count	%	97.3
N#CCCN1CCN(S(=O)(=O)c2ccc(S(=O)(=O)NC3CCCC3)cc2)CC1	nuclei count	%	126
CCN(CC)CC(C)CNC(=O)CC(C(=O)N1CCc2ccccc21)n1ccnc1 (stereo not drawn)	nuclei count	%	110
CN(C)c1ccc(CNn2cnnc2)cc1	nuclei count	%	102
CC(C)CSc1nc(N2CCOCC2)c2c(c1C#N)CC(C)(C)SC2	nuclei count	%	145
COc1ccccc1CNC(=O)N[C@@H](Cc1ccccc1)C(=O)O	nuclei count	%	99.5
O=C(CCN1C(=O)COc2ccccc21)N1CCN(c2ccccn2)CC1	nuclei count	%	132
CCCCCc1c(C)nc(Nc2nc(C)c3cc(OC)ccc3n2)[nH]c1=O	nuclei count	%	98
COC(=O)CCn1nnc(-c2cccs2)n1	nuclei count	%	96
Cc1cccc(OCC(=O)N(Cc2cccs2)C2CCS(=O)(=O)C2)c1C (stereo not drawn)	nuclei count	%	112
O=c1c2cc(N3CCOCC3)ccc2[nH]c(=S)n1CCCN1CCCC1	nuclei count	%	106
COCC(C)Nc1ncnc2c1cnn2-c1ccc(Cl)cc1 (stereo not drawn)	nuclei count	%	170
Clc1ccc(-n2nnnc2Sc2ncnc3sccc23)cc1	nuclei count	%	122
